Biological target: rat AT1aR (Rattus norvegicus)
Sequence (P25095 whole entry): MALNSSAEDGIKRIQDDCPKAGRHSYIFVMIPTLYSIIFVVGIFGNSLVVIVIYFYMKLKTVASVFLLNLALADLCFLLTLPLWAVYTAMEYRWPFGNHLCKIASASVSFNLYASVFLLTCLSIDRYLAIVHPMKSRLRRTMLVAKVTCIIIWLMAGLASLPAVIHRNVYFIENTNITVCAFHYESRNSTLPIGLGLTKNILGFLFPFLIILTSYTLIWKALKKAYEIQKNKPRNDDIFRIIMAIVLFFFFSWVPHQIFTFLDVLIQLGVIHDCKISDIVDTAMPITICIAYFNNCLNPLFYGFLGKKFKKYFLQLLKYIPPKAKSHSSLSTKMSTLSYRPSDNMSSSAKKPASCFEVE
Test: beta-arrestin2 recruitment assay (PathHunter), rat AT1aR
Type: cell-based
Settings: read-out: pEC50 (converted)
Procedure: The proximal event in β-arrestin function mediated by GPCRs is recruitment to receptors following ligand binding and receptor phosphorylation by GRK's. Thus, the measure of β-arrestin recruitment was used to determine ligand efficacy for β-arrestin function. B-arrestin-2 recruitment to the human and rat angiotensin 2 type 1 receptor (human AT1R and rat AT1aR, respectively) was measured with the PathHunter™ μl-arrestin assay (DiscoveRx Corporation, Fremont Calif.). […]
Where a SMILES comes first, the peptide text is derived from it. [ ]: non-standard residue; d: D form. Ac6c = NC1(C(=O)O)CCCCC1; Aib = CC(C)(N)C(=O)O; Sar = CNCC(=O)O
EXPERIMENTAL READOUT: EC50

# COMPOUND, REPORTED
measured = [
    ("CNCC(=O)N[C@@H](CCCNC(=N)N)C(=O)N[C@H](C(=O)N[C@@H](Cc1ccc(O)cc1)C(=O)NC1(C(=O)N[C@@H](Cc2c[nH]cn2)C(=O)N2CCC[C@H]2C(=O)N[C@H](C)C(=O)O)CCCCC1)C(C)C", "> 3.16 nM"),
    ("CNCC(=O)N[C@@H](CCCNC(=N)N)C(=O)N[C@H](C(=O)N[C@@H](Cc1ccc(O)cc1)C(=O)NC1(C(=O)N[C@@H](Cc2c[nH]cn2)C(=O)N2CCC[C@H]2C(=O)N[C@@H](Cc2c[nH]cn2)C(=O)O)CCCCC1)C(C)C [SEQ ID NO: 37, Sar-Arg-Val-Tyr-cyHex-His-Pro-His] (H-[Sar]RVY[Ac6c]HPH-OH)", "> 3.16 nM"),
    ("CNCC(=O)N[C@@H](CCCNC(=N)N)C(=O)N[C@H](C(=O)N[C@@H](Cc1ccc(O)cc1)C(=O)NC(C)(C)C(=O)N[C@@H](Cc1c[nH]cn1)C(=O)N1CCC[C@H]1C(=O)N[C@H](C(=O)O)[C@@H](C)O)C(C)C [SEQ ID NO: 40, Sar-Arg-Val-Tyr-AA01-His-Pro-Thr] (H-[Sar]RVY[Aib]HPT-OH)", "> 3.16 nM"),
]

###

EC50 reference
Molecular target: UniProt P30556
Sequence (P30556 1-359): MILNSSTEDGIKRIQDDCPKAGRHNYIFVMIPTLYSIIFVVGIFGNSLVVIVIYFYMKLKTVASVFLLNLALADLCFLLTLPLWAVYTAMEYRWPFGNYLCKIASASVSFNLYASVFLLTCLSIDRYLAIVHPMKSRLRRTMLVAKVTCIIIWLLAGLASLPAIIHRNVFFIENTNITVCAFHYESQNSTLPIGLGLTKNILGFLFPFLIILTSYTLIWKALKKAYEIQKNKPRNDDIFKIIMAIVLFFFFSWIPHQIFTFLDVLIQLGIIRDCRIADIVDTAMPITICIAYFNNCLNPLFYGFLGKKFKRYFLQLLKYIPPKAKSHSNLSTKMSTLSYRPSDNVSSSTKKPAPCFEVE
Assay: beta-arrestin2 recruitment assay (PathHunter), human AT1R
Format: cell-based
Details: read-out: pEC50 (converted)
Where a SMILES comes first, the peptide text is derived from it. [ ]: non-standard residue; d: D form. Tle = CC(C)(C)[C@H](N)C(=O)O; Ac6c = NC1(C(=O)O)CCCCC1; Aib = CC(C)(N)C(=O)O; Sar = CNCC(=O)O
EXPERIMENTAL READOUT: EC50

# MOLECULE, SYSTEM UNDER TEST, EXPERIMENTAL READOUT, REPORTED
rows = [
    ("CNCC(=O)N[C@@H](CCCNC(=N)N)C(=O)N[C@H](C(=O)N[C@@H](Cc1ccc(O)cc1)C(=O)NC(C)(C)C(=O)N[C@@H](Cc1c[nH]cn1)C(=O)N1CCC[C@H]1C(=O)N[C@H](C(=O)O)[C@@H](C)O)C(C)C [SEQ ID NO: 40, Sar-Arg-Val-Tyr-AA01-His-Pro-Thr] (H-[Sar]RVY[Aib]HPT-OH)", "UniProt P30556", "EC50", "> 3.16 nM"),
    ("CNCC(=O)N[C@@H](CCCNC(=N)N)C(=O)N[C@H](C(=O)N[C@@H](Cc1ccc(O)cc1)C(=O)NC1(C(=O)N[C@@H](Cc2c[nH]cn2)C(=O)N2CCC[C@H]2C(=O)N[C@H](C(=O)O)C(C)(C)C)CCCCC1)C(C)C [SEQ ID NO: 56, Sar-Arg-Val-Tyr-cyHex-His-Pro-AA02] (H-[Sar]RVY[Ac6c]HP[Tle]-OH)", "UniProt P30556", "EC50", "> 3.16 nM"),
]
